Conditions: human, serum;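 further: acute human liver injury from clinical signs plus serum ALT or AST above 6 N or alkaline phosphatase above 1.7 N, covering cytolytic, cholestatic and mixed forms, value counts references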
Metric Name: Hepatotoxicity (acute)
Simply state the number, no unit and no words.

INSERT INTO measurements (compound, value_reported) VALUES
  ('NCCCC[C@H](N[C@@H](CCc1ccccc1)C(=O)O)C(=O)N1CCC[C@H]1C(=O)O [LISINOPRIL ANHYDROUS]', 3),
  ('OC(CCN1CCCCC1)(c1ccccc1)C1CCCCC1 (stereo not drawn)', 1);

For reference, reported Hepatotoxicity (acute) for CO[C@@H]1O[C@H](CO)[C@H](O)[C@H](O[C@@H]2O[C@@H](C(=O)O)[C@@H](OC)[C@H](O)[C@H]2O)[C@H]1NC(C)=O stands at 0

Form field Hepatotoxicity (acute), entry C=CCOc1ccccc1OCC(O)CNC(C)C (stereo not drawn) : 1

response.value for COc1ccnc(C[S+]([O-])c2nc3ccc(OC(F)F)cc3[nH]2)c1OC (stereo not drawn) (field: Hepatotoxicity (acute)) = 2

// Hepatotoxicity (acute) lookup, compound = CC(C(=O)O)c1ccc2c(c1)[nH]c1ccc(Cl)cc12 (stereo not drawn) , result: 0

The value of Hepatotoxicity (acute) measured for the compound CO/N=C(\C(=O)N[C@@H]1C(=O)N2C(C(=O)O)=C(C)CS[C@H]12)c1csc(N)n1 turned out to be 0

The value of Hepatotoxicity (acute) measured for the compound CCOC(=O)C1=C(COCCN)NC(C)=C(C(=O)OC)C1c1ccccc1Cl (stereo not drawn) turned out to be 4
